Target: huCD4_1–32-YFP V13A (Homo sapiens, UniProt P01730, V13A)
Experiment: CADA inhibition of huCD4_1–32-YFP secretion
Assay type: cell-based
Conditions: read-out: Secreted YFP IC50 (μM) Mean, HEK293T, CADA 48h
quantity-kind: IC50 (µM)
Give bare numbers, in µM.

What value of IC50 has been reported for the following molecule? C=C1CN(S(=O)(=O)c2ccc(C)cc2)CCCN(Cc2ccccc2)CCCN(S(=O)(=O)c2ccc(C)cc2)C1 [CADA, Cyclotriazadisulfonamide] 0.46

---

Target: huCD4_1–32-YFP L30A (Homo sapiens, UniProt P01730, L30A)
Experiment: CADA inhibition of huCD4_1–32-YFP secretion
Type: cell-based
Conditions: read-out: Secreted YFP IC50 (μM) Mean, HEK293T, CADA 48h
quantity-kind: IC50 (µM)
One number for each entry, in µM.

What value of IC50 has been reported for the following compound? C=C1CN(S(=O)(=O)c2ccc(C)cc2)CCCN(Cc2ccccc2)CCCN(S(=O)(=O)c2ccc(C)cc2)C1 [CADA, Cyclotriazadisulfonamide] 1.08
